assaySystem: human glucagon receptor (human, UniProt P47871 26-477)
Sequence (P47871 26-477): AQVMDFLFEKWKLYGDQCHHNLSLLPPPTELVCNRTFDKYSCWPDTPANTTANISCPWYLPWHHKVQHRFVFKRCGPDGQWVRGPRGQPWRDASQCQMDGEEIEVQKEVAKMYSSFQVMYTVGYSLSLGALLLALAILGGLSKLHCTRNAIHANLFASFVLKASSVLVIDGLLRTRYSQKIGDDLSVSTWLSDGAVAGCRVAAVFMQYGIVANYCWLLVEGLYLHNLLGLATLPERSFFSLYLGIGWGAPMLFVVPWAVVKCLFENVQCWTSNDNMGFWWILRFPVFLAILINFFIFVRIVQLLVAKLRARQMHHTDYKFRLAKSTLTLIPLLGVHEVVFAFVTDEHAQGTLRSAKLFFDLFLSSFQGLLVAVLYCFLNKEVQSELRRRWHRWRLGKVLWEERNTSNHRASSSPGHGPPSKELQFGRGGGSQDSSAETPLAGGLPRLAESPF
assayRemarks: cell-based or functional assay
Square brackets hold non-standard residues; d marks the D form. Ends that are not written are not given here. Aib = CC(C)(N)C(=O)O
In vitro Activity (relative activity to SEQ ID NO: 1, %); cAMP assay, from EC50 listing for selected binders.
parameter: In vitro Activity (relative activity to SEQ ID NO: 1, %); cAMP assay, from EC50

{"columns": ["binder", "valueQualifier", "recordedValue"],
 "data": [
  ["Y[Aib]QGTFTSDYSKYLDCRRAQVFVQWLMRT [glucagon derivative of SEQ ID NO: 16]", "=", 4.2],
  ["Y[Aib]QGTFTSDYSKYLDCVRAQDFVQWLMRT [glucagon derivative of SEQ ID NO: 17]", "=", 23.2],
  ["Y[Aib]QGTFTSDYSKYLDSCDAQDFVQWLINT [glucagon derivative of SEQ ID NO: 8]", "<", 0.1]
]}
